System: Human immunodeficiency virus 1
protocol_text: Antiviral activity against HIV1 LAI in human MT2 cells after 7 days by MTT assay
Assay type: functional, organism-based
stated_conditions: Human immunodeficiency virus 1, LAI, MT2, 168 h
quantity: IC50 (nM)
One number for each entry, in nM.

// below: answered compounds
# sample_smiles, target_under_test, quantity, result_value
data = [
    ("Cc1ccccc1CNC(=O)[C@H]1N(C(=O)[C@@H](O)[C@H](Cc2ccccc2)NC(=O)O[C@H]2CO[C@H]3OCC[C@H]32)CSC1(C)C", "Human immunodeficiency virus 1", "IC50", 9),
    ("COc1ccc(CNC(=O)[C@H]2N(C(=O)[C@@H](O)[C@H](Cc3ccccc3)NC(=O)O[C@H]3CO[C@H]4OCC[C@H]43)CSC2(C)C)c(C)c1", "Human immunodeficiency virus 1", "IC50", 51),
    ("Cc1ccccc1CNC(=O)[C@H]1N(C(=O)[C@@H](O)[C@H](Cc2ccccc2)NC(=O)O[C@@H]2C[C@@H]3CCO[C@@H]3C2)CSC1(C)C", "Human immunodeficiency virus 1", "IC50", 13),
    ("Cc1cc(N)ccc1CNC(=O)[C@H]1N(C(=O)[C@@H](O)[C@H](Cc2ccccc2)NC(=O)O[C@H]2CO[C@H]3OCC[C@H]32)CSC1(C)C", "Human immunodeficiency virus 1", "IC50", 530),
    ("Cc1cc(CO)ccc1CNC(=O)[C@H]1N(C(=O)[C@@H](O)[C@H](Cc2ccccc2)NC(=O)O[C@H]2CO[C@H]3OCC[C@H]32)CSC1(C)C", "Human immunodeficiency virus 1", "IC50", 230),
]

Kindly note the recorded IC50 for "Cc1ccccc1CNC(=O)[C@H]1N(C(=O)[C@@H](O)[C@H](Cc2ccccc2)NC(=O)O[C@H]2CCOC2)CSC1(C)C" , which is 20
